selectivity ratio overview
assay: Selectivity index, ratio of TC50 for human HepG2(2.2.15) cells to IC50 for Hepatitis B virus DNA replication; format: toxicity
quantity_measured: selectivity ratio

INSERT INTO measurements (compound, assay_value) VALUES
  ('Cc1nnsc1/C(Br)=C(/NC(=O)c1ccccc1)C(=O)N1CCCCC1', 21.4),
  ('Nc1ccn([C@@H]2CS[C@H](CO)O2)c(=O)n1 [LAMIVUDINE]', 65),
  ('Cc1nnsc1/C(Br)=C(/NC(=O)c1ccccc1)C(=O)N1CCOCC1', 10.9),
  ('Cc1nnsc1C(=O)N/C(C(=O)N1CCCCC1)=C(\Br)c1ccc(Cl)cc1', 4.96),
  ('Cc1nnsc1C(=O)N/C(C(=O)N1CCCCC1)=C(\Br)c1ccccc1Cl', 8.29);
